- Tested on: SK-MEL-28
- assay_notes: NCI tumour cell line growth inhibition, 48 h
Calls of active or inactive are those of the source. Rule as the data show it: active = GI50 up to about 1.1 µM and inactive = higher.
GI50 reference
readout_label: GI50

| compound | readout_label | measured |
| --- | --- | --- |
| Cc1ccc(NC(=O)CC(=O)n2nc(C)c(/N=N/c3ccccc3C(=O)O)c2C)cc1 | GI50 | > 100 µM (inactive) |
| COc1cc2ccc(CC(=O)O)cc2cc1OC | GI50 | > 100 µM (inactive) |
| C/C(=N\Nc1ccc([N+](=O)[O-])cc1[N+](=O)[O-])c1sc(-n2nc(-c3ccccc3)cc2-c2ccccc2)nc1C | GI50 | 90.2 µM (inactive) |
| COc1ccc(C2C(C#N)=C(O)NC(O)=C2C#N)cc1OC | GI50 | > 100 µM (inactive) |
| CC(O)CN1c2ccccc2Sc2ccccc21 (configuration not stated) | GI50 | > 100 µM (inactive) |
| C/C(=N\NS(=O)(=O)c1ccc(C)cc1)c1ccccn1 | GI50 | 98.2 µM (inactive) |
| S=C(Nc1ccccc1)N(/N=C/C=C/c1ccccc1)c1nnc(-c2ccccc2)c(-c2ccccc2)n1 | GI50 | 54.6 µM (inactive) |
